Target: T1, human TSLP recombinant protein (human, UniProt Q969D9 29-159, biotinylated in the blocking and cell-binding assays (sites not given))
T1 construct: also called biotinylated human TSLP protein
Experiment: SPR BIAcore T200, antibody captured on Protein A, human TSLP injected
Item-by-item account of kon
Just the number in M⁻¹ s⁻¹, nothing appended.

Use the examples below as a reference point.
INSERT INTO assay_data (binder, quantity_kind, unit_spec, value) VALUES
  ('80B12 chimeric antibody (antibody, V domains shown) VH: QVQLQQSGPQLVRPGASVKISCKASGYSFTTYWMHWVKQRPGQGLEWIGLIDPSDGEAGLNQNFKDKATLTVDISSRTAYMQISSPTSEDSAVYFCARSLDGYYDYWGQGTTLTVSS VL: DIQMTQSPASLSASVGETVTITCRASEDIYSYLAWYQQKQGKSPQLLVYNAKTLAEGVPSRFSGSGSGTQFSLKINSLQPEDFGSYYCQHFWSTPWTFGGGTKLELK', 'kon', 'M⁻¹ s⁻¹', '4.82e+06'),
  ('76A8 chimeric antibody (antibody, V domains shown) VH: QVQLQQSGPQLVRPGASVKISCKASGYSFTSYWMHWVKQRPGQGLEWIGLIDPSDSETGLNQRFKDKATLTVDNPSSTAYMQLSSPTSEDSAVYYCARSLDGYYDYWGQGTTLTVSS VL: DIQMIQSPASLSASVGETVTITCRASGNIHNYLAWYQQKQGKSPQLLVYNAKTLADGVPSRFSGSGSGTQYSLKINSLQPEDFGSYYCQHFWSTPWTFGGGTRLEIK', 'kon', 'M⁻¹ s⁻¹', '3.22e+06'),
  ('80E11 chimeric antibody (antibody, V domains shown) VH: QVQLQQSGPQLVRPGASVKISCKASGYSFTSYWMHWVKQRPGQGLEWIGVIDPSDSETILNQKFKDKATLTVDKSSSTAYMQFSSPTSEDSAVYYCARSLDGYYDYWGQGTTLTVSS VL: DIQMTQSPASLSASVGETVTITCRAGENIYSYLAWYQQKQGKSPQLLVYNAKTLAEGVPSRFSGSASGTQFSLKINSLQPEDFGSYYCQHFWGTPWAFGGGTRLEIK', 'kon', 'M⁻¹ s⁻¹', '6.62e+06');

Any idea what kon was measured for 80D12 chimeric antibody (antibody, V domains shown) VH: QVQLKQSGPQLVRPGASVKISCKASGYSFTSYWMHWVKQRPGQGLEWIGMIDPSDSETTLNQKFKDKATLTVDKSSTTAYMQLSSPTSEDSAVYYCARSLDGYYDYWGQGTTLTVSS VL: DVQMIQSPASLSASVGETVTITCRTSENIYSYLAWYQQKQGKSPQLLVYFAKTLTDGVPSRFSGSGSGTQFSLKINSLQPEDFGSYYCQHHYGTPWTFGGGTKLEIK ?
4.77e+06

Query: kon; subject: 71G4 chimeric antibody (antibody, V domains shown) VH: QVQLQQSGAELVMPGASVKMSCKASGYTFTDYWMHWVKQRPGQGLEWIGTIDNSDSDTTYNQKFKGKVTLTVDESSSTAYMQLSSLTSEDSAVYYCARSVDGYLDYWGQGTTLTVSS VL: EIQMTQSPASLSASVGETVTITCRTSENIYSYLAWYQQKQGKSPQLLVYFAKTLTDGVPSRLSGSGSGTQFSLKINSLQPEDFGSYYCQHHYGTPWTFGGGTKLEIK
3.15e+06

Bench note: what kon did 79D6 chimeric antibody (antibody, V domains shown) VH: QVQLQQSGAELVMPGASVKMSCKASGYTFTGYWMHWVKQRPGQGLEWIGTIDNSDSDTTYNQKFKGKVTLTVDESSSTAYMQLSSLTSEDSAVYYCARSVDGYLDYWGQGTTLTVSS VL: DIQMIQSPASLSASVGETVTITCRASENIYSYLAWYQQIQGKSPQLLVYYAKTLPEGVPSRFSGSGSGTQFSLKINSLQPEDFGSYYCQHHYGTPWTFGGGTKLEIK show?
4.31e+06

Field request: kon | item: 39G5-H8 chimeric antibody (antibody, V domains shown) VH: QVQLLQSGPQLVRPGASVKISCKASGYSFISYWIHWVKQRPGQGLEWIGIIDPSDSDTSLNQKFKDKATLTVDKSSTTAYIQLSSPTSEDSAVYYCARSLDGYYDYWGQGTTLTVSS VL: DIQMTQSPASLSASVGETVTITCRASENIYSYLAWYQQKQGKSPQLLVYNARTLPEGVPSRFSGSGSGTQFSLKINSLQPEDFGIYYCQHHYTTPWTFGGGTKLEIK
4.84e+06
